The measurements presented in this section are drawn from PubChem BioAssay (NCI).

- Tested on: COLO 205 colon
- experiment: NCI tumour cell line growth inhibition, 48 h
measured-property: TGI (µM)

1. CC(C)(C)[Si](C)(C)OCC1OC(n2cc(I)c(=O)[nH]c2=O)C(O[Si](C)(C)C(C)(C)C)C1O[Si](C)(C)C(C)(C)C (stereo not given)
53.7
2. Cn1c(=O)c2c(nc3sc4c(n32)C(=O)c2c(O)ccc(O)c2C4=O)n(C)c1=O
12.1

* * *

- System: SK-MEL-28 melanoma
- experiment: NCI tumour cell line growth inhibition, 48 h
Where a SMILES comes first, the peptide text is derived from it. [ ]: non-standard residue; d: D form. Phe(4-NO2) = N[CH](Cc1ccc([N+](=O)[O-])cc1)C(=O)O
We begin with a simple list: items and their reported TGI.
measured-property: TGI

1) CCOC(=O)C1C(C)C2(C#N)C(=N)OC1(C)C2(C#N)C#N (stereo unspecified)
> 100 µM
2) O=C(O)COc1ccc(C(=O)/C(SS/C(C(=O)c2ccc(OCC(=O)O)c(Cl)c2Cl)=C2\C=C(c3ccc(Cl)cc3)SS2)=C2/C=C(c3ccc(Cl)cc3)SS2)c(Cl)c1Cl
56.7 µM
3) NC(N)=NC(N)=Nc1cnccn1
> 100 µM
4) CC(NC(=O)C(Cc1ccc([N+](=O)[O-])cc1)NC(=O)C(N)CCCCN)C(=O)NC(Cc1ccc([N+](=O)[O-])cc1)C(N)=O (stereo unspecified) (H-K[Phe(4-NO2)]A[Phe(4-NO2)]-NH2; configuration not given here)
> 100 µM
5) N=C(N)SCc1c2ccccc2c(CSC(=N)N)c2ccccc12
24.1 µM
6) COc1ccc(-c2cc(-c3ccc(O)cc3O)c(C#N)c(=O)[nH]2)cc1
33.5 µM
7) N#CCCCCCOCCOCCOCCOCCOCCCCCC#N
> 100 µM
8) CC1(C)C2CC(O)C1CCC2=O (stereo unspecified)
> 100 µM
9) COC(=O)c1ccccc1NC(=NC1CCCCCC1)NS(=O)(=O)c1ccc(C)cc1
> 100 µM
10) COc1ccc(C2=C(N)c3c(Cl)cccc3C2=O)cc1
> 100 µM
11) O=c1[nH]c(=O)c2cc3cc(C4CC(O)C(CO)O4)ccc3cc2[nH]1 (stereo unspecified)
> 100 µM
12) [N-]=[N+]=Nc1c(Cl)c(Cl)nc2ccccc12
> 100 µM
13) Cc1cc(C)n(-c2ccnc3cc(Cl)ccc23)n1
> 100 µM
14) CCc1nc(N)nc(N)c1-c1ccc2nnn(O)c2c1
> 100 µM
15) CC1(C)CC(=O)C2=C(C1)NC1=C(C2)C(=O)CC(C)(C)C1
> 100 µM
16) Cc1ccc2c(c1)c(Sc1ccc(C(=O)NO)cc1)c1n2CN(C)CC1
3.63 µM
17) CC1CC/C(=C\c2ccc(N(C)C)cc2)C2=C1C(c1ccc(N(C)C)cc1)NC(=S)N2 (stereo unspecified)
> 100 µM
18) C[C@]12CC[C@@H]3c4cc(OC(F)F)c(OS(N)(=O)=O)cc4CC[C@H]3[C@@H]1CC[C@@H]2OS(N)(=O)=O
20.3 µM
19) COC(=O)C1=C(OC(=O)c2ccccc2)C(C(=O)OC)[C@@]2(O)[C@@H](C(=O)OC)[C@H](C)C[C@@H]1[C@@H]2C(=O)OC (stereo partly specified)
> 100 µM
20) Cc1c(Cl)nc(Cl)nc1Cl
8.5 µM
21) NC(=O)c1ncn(C2OC(CO)C(O)C2O)c1NC=O (stereo unspecified)
> 100 µM
